- assayed-target: T1, VLP-hCLDN6 (human) (UniProt P56747)
- T1 sequence: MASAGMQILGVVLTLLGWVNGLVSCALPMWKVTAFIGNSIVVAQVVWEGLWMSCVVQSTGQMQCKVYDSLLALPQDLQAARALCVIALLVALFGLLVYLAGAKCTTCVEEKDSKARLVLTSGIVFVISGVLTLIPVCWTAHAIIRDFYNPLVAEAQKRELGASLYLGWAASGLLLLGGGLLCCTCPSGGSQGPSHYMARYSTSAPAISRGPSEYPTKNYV
- assay-explanation: ELISA, coated VLP-hCLDN6, 10 ul antibody sample (second well), HRP-Protein A
Outcome: label 1 for OD450 of at least 1; label 0 for anything lower.

- humanized antibody hAb-9 (antibody, V domains shown) VH: EVKLVESGGGLVKPGGSLRLSCAASGFTFNSYTMSWVRQAPGKRLEWVVTISSGGGRTYYPDSVKGRFTISRDNAKNTLYLQMSSLRAEDTAVYYCIRGDYRYDGFAYWGQGTLVTVSS VL: DIQMTQSPSSLSASVGDRVTITCRASENIDSYLAWYQQKPGKSPQLLVYASTLLVDGVPSRFSGSRSGTQFSLTISSLQPEDVARYYCQHYYSIPYTFGSGTKLEIK: label 1

Challenge: Determine whether measured OD450 meets or exceeds 1 for humanized antibody hAb-24 (antibody, V domains shown) VH: EVKLVESGGGLVKPGGSLRLSCAASGFTFNSYTMSWVRQTPAKRLEWVVTISSGGGRTYYPDSVKGRFTISRDNARNTLYLQMSSLRAEDTAVYYCIRGDYRYDGFAYWGQGTLVTVSS VL: DIQMTQSPSSLSASVGDRVTITCRASENIDSYLAWYQQKPGKSPQLLVYASTLLQDGVPSRFSGSRSGTQFTLTISSLQPEDFATYYCQHYYSIPYTFGSGTKLEIK
Response given: label 1

Challenge: Determine whether measured OD450 meets or exceeds 1 for humanized antibody hAb-14 (antibody, V domains shown) VH: EVKLVESGGGLVQPGGSLRLSCAASGFTFNSYTMSWVRQAPGKRLEWVVTISSGGGRTYYPDSVKGRFTISRDNAKNTLYLQMSSLRAEDTAVYYCIRGDYRYDGFAYWGQGTLVTVSS VL: DIQMTQSPSSLSASVGDRVTITCRASENIDSYLAWYQQKPGKSPQLLVYASTLLQDGVPSRFSGSRSGTDFTLTISSLQPEDVATYYCQHYYSIPYTFGSGTKLEIK
Response given: label 0

Challenge: Determine whether measured OD450 meets or exceeds 1 for humanized antibody hAb-8 (antibody, V domains shown) VH: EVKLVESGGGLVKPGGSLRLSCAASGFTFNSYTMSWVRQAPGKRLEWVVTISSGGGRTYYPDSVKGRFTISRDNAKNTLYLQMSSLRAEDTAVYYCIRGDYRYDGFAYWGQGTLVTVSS VL: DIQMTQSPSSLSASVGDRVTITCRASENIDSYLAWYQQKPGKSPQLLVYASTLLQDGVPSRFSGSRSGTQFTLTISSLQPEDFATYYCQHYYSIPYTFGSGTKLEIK
Response given: label 1

Challenge: Determine whether measured OD450 meets or exceeds 1 for humanized antibody hAb-20 (antibody, V domains shown) VH: EVKLVESGGGLVQPGGSLRLSCAASGFTFNSYTMSWVRQTPAKRLEWVVTISSGGGRTYYPDSVKGRFTISRDNAKNTLYLQMSSLRAEDTAVYYCIRGDYRYDGFAYWGQGTLVTVSS VL: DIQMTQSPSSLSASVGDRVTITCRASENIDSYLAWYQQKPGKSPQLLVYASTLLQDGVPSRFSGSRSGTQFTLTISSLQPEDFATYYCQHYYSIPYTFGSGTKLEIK
Response given: label 1
